Where do the numbers come from? From the Immune Epitope Database (IEDB).

Molecular target: HLA-A*31:01
Assay: IEDB peptide-MHC binding, purified MHC/competitive/radioactivity; filed as Kd, often an IC50 or EC50 that approximates it; bounds were set here for any values at or beyond the usual limits of such assays
Conditions: source organism: Vaccinia virus WR
pKd: −log10 of the molar value.
Each entry below carries its recorded pKd.
measured.attribute: pKd

{"chain": "MSHVKSVTK", "inequality.symbol": "=", "recorded.result": 7.70}
{"chain": "MSMGDIITY", "inequality.symbol": "=", "recorded.result": 5.07}
{"chain": "YISRDELWAR", "inequality.symbol": "=", "recorded.result": 8.76}
{"chain": "VTGFMEEEIK", "inequality.symbol": "=", "recorded.result": 4.97}
{"chain": "SVPLPCQLMY", "inequality.symbol": "≤", "recorded.result": 4.63}
{"chain": "SFKSINKVY", "inequality.symbol": "=", "recorded.result": 5.67}
{"chain": "YIYKSGKLVK", "inequality.symbol": "=", "recorded.result": 5.11}
{"chain": "VFCNDHKGNR", "inequality.symbol": "=", "recorded.result": 6.37}
{"chain": "NFFTELENK", "inequality.symbol": "=", "recorded.result": 5.14}
{"chain": "DIKLDAVLDR", "inequality.symbol": "=", "recorded.result": 4.75}
{"chain": "SMDVLAEKK", "inequality.symbol": "≤", "recorded.result": 4.65}
{"chain": "ELVTRKCPQK", "inequality.symbol": "≤", "recorded.result": 4.15}
{"chain": "TFIDVHIPK", "inequality.symbol": "=", "recorded.result": 8.63}
{"chain": "RVVVQIDPEY", "inequality.symbol": "≤", "recorded.result": 4.15}
{"chain": "IFVDTMSIY", "inequality.symbol": "=", "recorded.result": 5.17}
{"chain": "TQSVLCVKK", "inequality.symbol": "=", "recorded.result": 6.00}
{"chain": "ELALTDVEK", "inequality.symbol": "=", "recorded.result": 5.01}
{"chain": "KLQARNIQK", "inequality.symbol": "=", "recorded.result": 7.87}
{"chain": "NAPIKEFKAK", "inequality.symbol": "=", "recorded.result": 5.05}
{"chain": "PVSMTYLYNK", "inequality.symbol": "=", "recorded.result": 5.21}
{"chain": "ISKIYTLIYR", "inequality.symbol": "=", "recorded.result": 9.47}
{"chain": "LAIKNYYRK", "inequality.symbol": "=", "recorded.result": 6.11}
{"chain": "LLGDSDSVAK", "inequality.symbol": "=", "recorded.result": 5.45}
{"chain": "SFSLESDSIK", "inequality.symbol": "=", "recorded.result": 5.58}
{"chain": "CTDESRDRK", "inequality.symbol": "≤", "recorded.result": 4.26}
{"chain": "KSISSIFGY", "inequality.symbol": "=", "recorded.result": 7.06}
{"chain": "SSKGLACYR", "inequality.symbol": "=", "recorded.result": 7.42}
{"chain": "SINSEYIESK", "inequality.symbol": "≤", "recorded.result": 4.15}
{"chain": "IVTSLAIKNY", "inequality.symbol": "=", "recorded.result": 5.05}
{"chain": "SAEDNYLAK", "inequality.symbol": "≤", "recorded.result": 4.27}
{"chain": "ITFLRPVLK", "inequality.symbol": "=", "recorded.result": 8.12}
{"chain": "VSAKQLRTR", "inequality.symbol": "=", "recorded.result": 6.54}
{"chain": "NTMCTEETKR", "inequality.symbol": "=", "recorded.result": 4.88}
{"chain": "SIMETIDPVY", "inequality.symbol": "=", "recorded.result": 5.01}
{"chain": "SLVKKNKKR", "inequality.symbol": "≤", "recorded.result": 4.11}
{"chain": "LMIFISSFLL", "inequality.symbol": "=", "recorded.result": 6.55}
{"chain": "EMYPRHRYSK", "inequality.symbol": "=", "recorded.result": 5.94}
{"chain": "TLNGIMMNER", "inequality.symbol": "=", "recorded.result": 6.97}
{"chain": "TFFSYLMKDK", "inequality.symbol": "=", "recorded.result": 6.25}
{"chain": "NVKKKNEGK", "inequality.symbol": "≤", "recorded.result": 4.69}
{"chain": "VLPHLCLDY", "inequality.symbol": "=", "recorded.result": 5.11}
{"chain": "FVDINRNNK", "inequality.symbol": "=", "recorded.result": 5.64}
{"chain": "LTALLSCIR", "inequality.symbol": "=", "recorded.result": 6.61}
{"chain": "WSRIGTAATK", "inequality.symbol": "≤", "recorded.result": 4.54}
{"chain": "FMEMFFDYNK", "inequality.symbol": "=", "recorded.result": 6.14}
{"chain": "TIKYSNDNR", "inequality.symbol": "=", "recorded.result": 7.71}
{"chain": "MIIGHIGHHY", "inequality.symbol": "=", "recorded.result": 6.82}
{"chain": "EIIGGNDMY", "inequality.symbol": "≤", "recorded.result": 4.11}
{"chain": "EVFGSTGDY", "inequality.symbol": "≤", "recorded.result": 4.11}
{"chain": "KVSAQNISFK", "inequality.symbol": "=", "recorded.result": 6.36}
{"chain": "TIQRFSSLR", "inequality.symbol": "=", "recorded.result": 9.26}
{"chain": "GADPNACDK", "inequality.symbol": "=", "recorded.result": 5.42}
{"chain": "ITLKIIETY", "inequality.symbol": "=", "recorded.result": 6.12}
{"chain": "FSTSAADIK", "inequality.symbol": "≤", "recorded.result": 4.45}
{"chain": "NIILSKIPY", "inequality.symbol": "=", "recorded.result": 4.84}
{"chain": "NISIIVLFQR", "inequality.symbol": "=", "recorded.result": 7.47}
{"chain": "QISRVNDLNR", "inequality.symbol": "=", "recorded.result": 6.91}

* * *

Target: HLA-B*08:01
Assay: IEDB peptide-MHC binding, purified MHC/competitive/radioactivity; filed as Kd, often an IC50 or EC50 that approximates it; bounds were set here for any values at or beyond the usual limits of such assays
Details: source organism: Vaccinia virus WR
pKd: −log10 of the molar value.
Answer NOT MET if pKd is under 7, and MET if it is 7 or more.

{"chain": "MRFKKESSL", "measured.target": "HLA-B*08:01", "label.value": "MET"}
{"chain": "RMFGSKPTF", "measured.target": "HLA-B*08:01", "label.value": "NOT MET"}
{"chain": "RMRFKKGAV", "measured.target": "HLA-B*08:01", "label.value": "MET"}

* * *

Molecular target: HLA-A*03:01
Experiment: IEDB peptide-MHC binding, purified MHC/competitive/radioactivity; filed as Kd, often an IC50 or EC50 that approximates it; bounds were set here for any values at or beyond the usual limits of such assays
Settings: source organism: Vaccinia virus WR
Attribute: Kd
measured.attribute: Kd

{"chain": "SAEDNYLAK", "measured.target": "HLA-A*03:01", "recorded.result": "≥ 26300 nM"}
{"chain": "ITLKIIETY", "measured.target": "HLA-A*03:01", "recorded.result": "≥ 78000 nM"}
{"chain": "NFFTELENK", "measured.target": "HLA-A*03:01", "recorded.result": "≥ 69500 nM"}
{"chain": "DVKASMLEKY", "measured.target": "HLA-A*03:01", "recorded.result": "≥ 24700 nM"}
{"chain": "TISSESLVY", "measured.target": "HLA-A*03:01", "recorded.result": "21 nM"}
{"chain": "IVTSLAIKNY", "measured.target": "HLA-A*03:01", "recorded.result": "1110 nM"}
{"chain": "VFCNDHKGNR", "measured.target": "HLA-A*03:01", "recorded.result": "≥ 53200 nM"}
{"chain": "AVLSAATETY", "measured.target": "HLA-A*03:01", "recorded.result": "237 nM"}
{"chain": "TLNGIMMNER", "measured.target": "HLA-A*03:01", "recorded.result": "226 nM"}
{"chain": "KSISSIFGY", "measured.target": "HLA-A*03:01", "recorded.result": "47.4 nM"}
{"chain": "MMFINSTCY", "measured.target": "HLA-A*03:01", "recorded.result": "21.2 nM"}
{"chain": "QFANVISKIY", "measured.target": "HLA-A*03:01", "recorded.result": "3390 nM"}
{"chain": "QISRVNDLNR", "measured.target": "HLA-A*03:01", "recorded.result": "1940 nM"}
{"chain": "RLGLVLDDY", "measured.target": "HLA-A*03:01", "recorded.result": "11.1 nM"}
{"chain": "SSKGLACYR", "measured.target": "HLA-A*03:01", "recorded.result": "12800 nM"}
{"chain": "IFVDTMSIY", "measured.target": "HLA-A*03:01", "recorded.result": "18300 nM"}
{"chain": "NISIIVLFQR", "measured.target": "HLA-A*03:01", "recorded.result": "907 nM"}
{"chain": "ISFKSINKVY", "measured.target": "HLA-A*03:01", "recorded.result": "2530 nM"}
{"chain": "TFFSYLMKDK", "measured.target": "HLA-A*03:01", "recorded.result": "1600 nM"}
{"chain": "WSRIGTAATK", "measured.target": "HLA-A*03:01", "recorded.result": "101 nM"}
{"chain": "SIMETIDPVY", "measured.target": "HLA-A*03:01", "recorded.result": "222 nM"}
{"chain": "VSAKQLRTR", "measured.target": "HLA-A*03:01", "recorded.result": "12700 nM"}
{"chain": "EIIGGNDMY", "measured.target": "HLA-A*03:01", "recorded.result": "5310 nM"}
{"chain": "CTDESRDRK", "measured.target": "HLA-A*03:01", "recorded.result": "5960 nM"}
{"chain": "MIIGHIGHHY", "measured.target": "HLA-A*03:01", "recorded.result": "47 nM"}
{"chain": "SMDVLAEKK", "measured.target": "HLA-A*03:01", "recorded.result": "911 nM"}
{"chain": "SVPLPCQLMY", "measured.target": "HLA-A*03:01", "recorded.result": "413 nM"}
{"chain": "DSLLITNTK", "measured.target": "HLA-A*03:01", "recorded.result": "2710 nM"}
{"chain": "EVFGSTGDY", "measured.target": "HLA-A*03:01", "recorded.result": "3140 nM"}
{"chain": "LAIKNYYRK", "measured.target": "HLA-A*03:01", "recorded.result": "≥ 45700 nM"}
